Form field: αs1-I CN, 6 hours, 11° C. (one value per entry).
- test-target: T1, alpha-s1 casein from Bos taurus
- T1 chain: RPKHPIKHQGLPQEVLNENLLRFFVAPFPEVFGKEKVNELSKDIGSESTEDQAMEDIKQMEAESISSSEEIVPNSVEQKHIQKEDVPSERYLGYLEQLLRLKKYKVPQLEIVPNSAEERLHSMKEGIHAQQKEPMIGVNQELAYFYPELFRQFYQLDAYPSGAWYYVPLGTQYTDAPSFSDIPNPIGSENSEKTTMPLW

protein	uom	αs1-I CN, 6 hours, 11° C.
camel chymosin variant #162 (L295R) (protein) GKVAREPLTSYLDSQYFGKIYIGTPPQEFTVVFDTGSSDLWVPSIYCKSNVCKNHHRFDPRKSSTFRNLGKPLSIHYGTGSMEGFLGYDTVTVSNIVDPNQTVGLSTEQPGEVFTYSEFDGILGLAYPSLASEYSVPVFDNMMDRHLVARDLFSVYMDRNGQGSMLTLGAIDPSYYTGSLHWVPVTLQQYWQFTVDSVTINGVAVACVGGCQAILDTGTSVLFGPSSDILKIQMAIGATENRYGEFDVNCGNLRSMPTVVFEINGRDYPLSPSAYTSKDQGFCTSGFQGDNNSERWILGDVFIREYYSVFDRANNRVGLAKAI	Volume	1.65e+07
bovine chymosin B variant #1 (A51V) (protein) GEVASVPLTNYLDSQYFGKIYLGTPPQEFTVLFDTGSSDFWVPSIYCKSNVCKNHQRFDPRKSSTFQNLGKPLSIHYGTGSMQGILGYDTVTVSNIVDIQQTVGLSTQEPGDVFTYAEFDGILGMAYPSLASEYSIPVFDNMMNRHLVAQDLFSVYMDRNGQESMLTLGAIDPSYYTGSLHWVPVTVQQYWQFTVDSVTISGVVVACEGGCQAILDTGTSKLVGPSSDILNIQQAIGATQNQYGEFDIDCDNLSYMPTVVFEINGKMYPLTPSAYTSQDQGFCTSGFQSENHSQKWILGDVFIREYYSVFDRANNLVGLAKAI	Volume	1.88e+07
camel chymosin variant #161 (L295M) (protein) GKVAREPLTSYLDSQYFGKIYIGTPPQEFTVVFDTGSSDLWVPSIYCKSNVCKNHHRFDPRKSSTFRNLGKPLSIHYGTGSMEGFLGYDTVTVSNIVDPNQTVGLSTEQPGEVFTYSEFDGILGLAYPSLASEYSVPVFDNMMDRHLVARDLFSVYMDRNGQGSMLTLGAIDPSYYTGSLHWVPVTLQQYWQFTVDSVTINGVAVACVGGCQAILDTGTSVLFGPSSDILKIQMAIGATENRYGEFDVNCGNLRSMPTVVFEINGRDYPLSPSAYTSKDQGFCTSGFQGDNNSEMWILGDVFIREYYSVFDRANNRVGLAKAI	Volume	1.96e+07
camel chymosin variant #154 (D290M) (protein) GKVAREPLTSYLDSQYFGKIYIGTPPQEFTVVFDTGSSDLWVPSIYCKSNVCKNHHRFDPRKSSTFRNLGKPLSIHYGTGSMEGFLGYDTVTVSNIVDPNQTVGLSTEQPGEVFTYSEFDGILGLAYPSLASEYSVPVFDNMMDRHLVARDLFSVYMDRNGQGSMLTLGAIDPSYYTGSLHWVPVTLQQYWQFTVDSVTINGVAVACVGGCQAILDTGTSVLFGPSSDILKIQMAIGATENRYGEFDVNCGNLRSMPTVVFEINGRDYPLSPSAYTSKDQGFCTSGFQGMNNSELWILGDVFIREYYSVFDRANNRVGLAKAI	Volume	2.69e+07
